test system: Serum; assay: Metabolic stability in human serum assessed as compound degradation rate at 1 mM by MALDI-TOF mass spectrometry assay; assay type: ADME, cell-free; settings: 1000 µM
Non-standard residues stand in square brackets, D forms with d. Residues, ends and D or L forms follow the SMILES beside them. Tle = CC(C)(C)[C@H](N)C(=O)O; β3hK = NCCCC[C@H](N)CC(=O)O; Ahp = NCCCCCCC(=O)O
property-measured: Activity (µmol/min)

| compound | property-measured | result-number |
| --- | --- | --- |
| CC(C)C[C@H](NC(=O)[C@@H](NC(=O)[C@H](Cc1ccc(O)cc1)NC(=O)[C@@H]1CCCN1C(=O)[C@H](CCCNC(=N)N)NC(=O)C[C@@H](N)CCCCN)C(C)(C)C)C(=O)O (H-[β3hK]RPY[Tle]L-OH) | Activity | 33.4 |

1. CC[C@H](C)[C@H](NC(=O)[C@H](Cc1ccc(O)cc1)NC(=O)[C@@H]1CCCN1C(=O)[C@H](CCCNC(=N)N)NC(=O)[C@@H](N)CCCNC(=N)N)C(=O)N[C@@H](CC(C)C)C(=O)O
2. CC(C)C[C@H](NC(=O)[C@@H](NC(=O)[C@H](Cc1ccc(O)cc1)NC(=O)[C@@H]1CCCN1C(=O)[C@H](CCCNC(=N)N)NC(=O)CCCCCCN)C(C)(C)C)C(=O)O (H-[Ahp]RPY[Tle]L-OH)
Asked: // pick larger Activity from pair: 1 vs 2 In your reply, give the label of the chosen option.
Given back: 1

* * *

Starred links: 1 amine or outer side, 2 acyl side, 3 side chain; linkers in the order of their positions; H or OH if unused. Non-standard residues stand in square brackets, D forms with d. Residues, ends and D or L forms follow the SMILES beside them. *: point of attachment. NMeβ3hLys = CN([C@@H](CCCCN)CC(=O)[*:2])[*:1]; αMeR = C[C@](N)(CCCNC(=N)N)C(=O)O; Tle = CC(C)(C)[C@H](N)C(=O)O; X3 = C[C@](N)(CCCCN)CC(=O)*; β3hK = NCCCC[C@H](N)CC(=O)O
Values of IC50 reported for Neurotensin receptor type 1 (Homo sapiens, UniProt P30989) appear below.
property-measured: IC50 (nM)

| compound | assay-system | IC50, nM |
| --- | --- | --- |
| CC(=O)N[C@@H](CCCNC(=N)N)C(=O)N[C@@H](CCCCN)C(=O)N1CCC[C@H]1C(=O)N[C@@H](Cc1c[nH]c2ccccc12)C(=O)N[C@H](C(=O)N[C@@H](CC(C)C)C(=O)O)C(C)(C)C (Ac-RKPW[Tle]L-OH) | Neurotensin receptor type 1 (Homo sapiens, UniProt P30989) | 863 |
| CC(C)C[C@H](NC(=O)[C@@H](NC(=O)[C@H](Cc1c[nH]c2ccccc12)NC(=O)[C@@H]1CCCN1C(=O)[C@H](CCCCN)NC(=O)[C@@](C)(N)CCCNC(=N)N)C(C)(C)C)C(=O)O (H-[αMeR]KPW[Tle]L-OH) | Neurotensin receptor type 1 (Homo sapiens, UniProt P30989) | 2900 |
| CC(C)C[C@H](NC(=O)[C@@H](NC(=O)[C@H](Cc1ccc(O)cc1)NC(=O)[C@@H]1CCCN1C(=O)[C@H](CCCNC(=N)N)NC(=O)C[C@@](C)(N)CCCCN)C(C)(C)C)C(=O)O (X3-RPY[Tle]L-OH) | Neurotensin receptor type 1 (Homo sapiens, UniProt P30989) | 13.9 |

1. CN[C@@H](CCCCN)CC(=O)N[C@@H](CCCN=C(N)N)C(=O)N1CCC[C@H]1C(=O)N[C@@H](Cc1ccc(O)cc1)C(=O)N[C@H](C(=O)N[C@@H](CC(C)C)C(=O)O)C(C)(C)C (NMeβ3hLys-RPY[Tle]L-OH)
2. CC(=O)N[C@@H](CCCCN)CC(=O)N[C@@H](CCCN=C(N)N)C(=O)N1CCC[C@H]1C(=O)N[C@@H](Cc1ccc(O)cc1)C(=O)N[C@H](C(=O)N[C@@H](CC(C)C)C(=O)O)C(C)(C)C (Ac-[β3hK]RPY[Tle]L-OH)
Asked: // pick larger IC50 from pair: 1 vs 2 In your reply, give the label of the chosen option.
Given back: 2
(2: 181 nM, 1: 27 nM)
